The measured values listed here are drawn from patent US20240408169A1.

Test system: NCI-H1048 cells
test.details: MTT proliferation assay, NCI-H1048;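 further: Dose-response in 96-well plates over 8 or 10 concentration points, with exposure spanning 3-4 cell doublings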
Format: cell-based
stated.conditions: 5 days compound exposure, 1:3 serial dilution starting at 10 μM
*1 amine or outer side, *2 acyl side, *3 side chain or, on linkers, in order; H or OH if unused. Where a SMILES comes first, the peptide text is derived from it. Bridges are numbered along the chain shown (N, C = ends). [ ]: non-standard residue; d: D form. The star is where a group is joined. NMehhhLys(Me) = CN([C@@H](CCCCCCCN(C)[*:3])C(=O)[*:2])[*:1]; NMe3Pal(2-OcPr,5-F) = CN[C@@H](Cc1cc(F)cnc1OC1CC1)C(=O)O; cBuCO(3,3-F2-1-CF3) = O=C(C1(C(F)(F)F)CC(F)(F)C1)*; Pro(trans-4-F) = O=C(O)[C@@H]1C[C@@H](F)CN1; Gly(cPr) = N[C@H](C(=O)O)C1CC1
experimental.endpoint: GI50 (nM)
Answer in nM, number only, no unit symbol.

{"compound": "CC(C)C[C@@H]1NC(=O)C(N(C)C(=O)[C@@H](NC(=O)[C@@H]2C[C@@H](F)CN2C(=O)C2(C(F)(F)F)CC(F)(F)C2)C2CC2)C/C=C\\CCCCN(C)C(=O)[C@H](Cc2cc(Cl)ccc2-c2ccc(N3CCN(C)CC3)cc2)N(C)C1=O (stereo partly shown)", "experimental.endpoint": "GI50", "display.unit": "nM", "result.number": 10}
{"compound": "CC(=O)N1CC=C(c2ccc(Cl)cc2C[C@H]2C(=O)NCCCCC=CC[C@H](N(C)C(=O)[C@@H](NC(=O)[C@@H]3C[C@@H](F)CN3C(=O)C3(C(F)(F)F)CC(F)(F)C3)C3CC3)C(=O)N[C@@H](CC(C)C)C(=O)N2C)CC1", "experimental.endpoint": "GI50", "display.unit": "nM", "result.number": 170}
{"compound": "CC(C)C[C@@H]1NC(=O)[C@@H](N(C)C(=O)[C@@H](NC(=O)[C@@H]2C[C@@H](F)CN2C(=O)C2(C(F)(F)F)CC(F)(F)C2)C2CC2)CCCCCCCN(C)C(=O)[C@H](Cc2cc(F)cnc2OC2CC2)N(C)C1=O [Example 128] ({cBuCO(3,3-F2-1-CF3)}-[Pro(trans-4-F)][Gly(cPr)][NMehhhLys(Me)]L[NMe3Pal(2-OcPr,5-F)]; lactam 3-C)", "experimental.endpoint": "GI50", "display.unit": "nM", "result.number": 30}

I would be grateful if you could share the reported GI50 for CCOC(=O)N1CC=C(c2ccc(Cl)cc2C[C@H]2C(=O)NCCCCC=CC[C@H](N(C)C(=O)[C@@H](NC(=O)[C@@H]3C[C@@H](F)CN3C(=O)C3(C(F)(F)F)CC(F)(F)C3)C3CC3)C(=O)N[C@@H](CC(C)C)C(=O)N2C)CC1 .
180

====

Attribute: pIC50
tgt: CyclinA2/CDK2 (Homo sapiens, UniProt P20248)
Construct: purchased CRELUX Protein Services
test.details: Fluorescence Polarization (FP) competitive binding assay, Cyclin A2/Cdk2;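 further: plates equilibrated two hours at room temperature before polarization reading, IC50 fitted from eight-concentration compound titration curves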
stated.conditions: 8 nM Cyclin A2/Cdk2, 2 nM FAM probe; average of 2-3 independent experiments; read-out: Cyclin A FP IC50
*1 amine or outer side, *2 acyl side, *3 side chain or, on linkers, in order; H or OH if unused. Where a SMILES comes first, the peptide text is derived from it. Bridges are numbered along the chain shown (N, C = ends). [ ]: non-standard residue; d: D form. The star is where a group is joined. X42 = CN([C@@H](Cc1cc(Cl)ccc1-c1cnn(S(=O)(=O)C2CC2)c1)C(=O)[*:2])[*:1]; X134 = CN([C@@H](Cc1cc(Cl)ccc1-c1cnc2[nH]c(O)cc2c1)C(=O)[*:2])[*:1]; X55 = CN([C@@H](Cc1cc(Cl)ccc1-c1cnn(CCN2CCOCC2)c1)C(=O)[*:2])[*:1]; NMehhhLys(Me) = CN([C@@H](CCCCCCCN(C)[*:3])C(=O)[*:2])[*:1]; NMe(hhhLys) = CN([C@@H](CCCCCCCN[*:3])C(=O)[*:2])[*:1]; cBuCO(3,3-F2-1-CF3) = O=C(C1(C(F)(F)F)CC(F)(F)C1)*; Pro(trans-4-F) = O=C(O)[C@@H]1C[C@@H](F)CN1; Gly(cPr) = N[C@H](C(=O)O)C1CC1
The meaning of pIC50 here: minus log10 of the concentration in molar units.

Some compounds with known pIC50 results, for comparison:
{"compound": "CC(C)C[C@@H]1NC(=O)[C@@H](N(C)C(=O)[C@@H](NC(=O)[C@@H]2C[C@@H](F)CN2C(=O)C2(C(F)(F)F)CC(F)(F)C2)C2CC2)CCCCCCCN(C)C(=O)[C@H](Cc2cc(Cl)ccc2-c2cnc3[nH]c(O)cc3c2)N(C)C1=O [Example 272] ({cBuCO(3,3-F2-1-CF3)}-[Pro(trans-4-F)][Gly(cPr)][NMehhhLys(Me)]L[X134]; lactam 3-C)", "tgt": "CyclinA2/CDK2 (Homo sapiens, UniProt P20248)", "pIC50": 7.30}
{"compound": "CC(C)C[C@@H]1NC(=O)[C@@H](N(C)C(=O)[C@@H](NC(=O)[C@@H]2C[C@@H](F)CN2C(=O)C2(C(F)(F)F)CC(F)(F)C2)C2CC2)CCCCCCCNC(=O)[C@H](Cc2cc(Cl)ccc2-c2cnn(S(=O)(=O)C3CC3)c2)N(C)C1=O [Example 300] ({cBuCO(3,3-F2-1-CF3)}-[Pro(trans-4-F)][Gly(cPr)][NMe(hhhLys)]L[X42]; lactam 3-C)", "tgt": "CyclinA2/CDK2 (Homo sapiens, UniProt P20248)", "pIC50": 7.52}

Look up pIC50 with CyclinA2/CDK2 (Homo sapiens, UniProt P20248) for this compound: CC(C)C[C@@H]1NC(=O)[C@@H](N(C)C(=O)[C@@H](NC(=O)[C@@H]2C[C@@H](F)CN2C(=O)C2(C(F)(F)F)CC(F)(F)C2)C2CC2)CCCCCCCN(C)C(=O)[C@H](Cc2cc(Cl)ccc2-c2cnn(CCN3CCOCC3)c2)N(C)C1=O [Example 256] ({cBuCO(3,3-F2-1-CF3)}-[Pro(trans-4-F)][Gly(cPr)][NMehhhLys(Me)]L[X55]; lactam 3-C)
7.52
